# Tested on: Human red blood cells (RBCs)
# Assay type: cell-based
Mark 1 only when 5 % Hemolysis stays strictly below 0.06 mmol/L. Values equal to the cut-off are 0.

Confirm or reject: 5 % Hemolysis of H-GAKERAHQ-OH [CGA-N8, NH2–GAKERAHQ–COOH] lies strictly below 0.06 mmol/L
0

Confirm or reject: 5 % Hemolysis of H-ERILSILRHQNLLKE-OH [CGA-N15, NH2–ERILSILRHQNLLKE–COOH] lies strictly below 0.06 mmol/L
1

Confirm or reject: 5 % Hemolysis of H-PMPVSQECFETLRGHERILSILRHQNLLKELQDLALQGAKERAHQQ-OH [CGA-N46] lies strictly below 0.06 mmol/L
0

Confirm or reject: 5 % Hemolysis of H-ALQGAKERAHQQ-OH [CGA-N12, NH2–ALQGAKERAHQQ–COOH] lies strictly below 0.06 mmol/L
0

---
Confirm or reject: 5 % Hemolysis of H-LQDLALQGAKERAHQQ-OH [CGA-N16, NH2–LQDLALQGAKERAHQQ–COOH] lies strictly below 0.06 mmol/L
1
